Consider the following compounds and their measured EC50 readings.
Test system: HCT116 colon cancer cells
Test: KSP Cellular Assay (percent of cells staining positive for Phos-Histone H3 / Phos-MPM2)
Type: cell-based
Settings: Homo sapiens, HCT-116, 16 h, table of Example 901; HCT116 cells, 16 hours with drug; read-out: EC50 (nM) Range
Experimental: HCT116 colon cancer cells were grown in DMEM:F12 media with 10% heat inactivated FBS at 37 degrees with 5% CO2. Cells were plated at 7,500 cells per well in PDL coated 384-well tissue culture plates. 6 hours later media was removed and new media containing drug was added. Cells were incubated with drug for 16 hours. […] The percent of cells staining positive was calculated and EC50 values for the compounds of the invention that were tested were determined using Excel XLfit. […]

[in] Notebook entry, HCT116 colon cancer cells assay: EC50 of CC(=O)N1N=C(c2cc(F)ccc2F)S[C@]12c1ccccc1OC[C@H]2CC#N = ?
[out] 500 to 1000 nM

[in] Let us now turn to CC(=O)N1N=C(c2cc(F)ccc2F)S[C@]12c1ccccc1OC[C@@H]2CC#N
[out] > 1000 nM

[in] Let us now turn to CC(=O)N1N=C(c2cc(F)ccc2F)S[C@@]12c1ccccc1OC[C@H]2CC#N
[out] ≤ 500 nM

[in] Let us now turn to CC(=O)N1N=C(c2cc(F)ccc2F)S[C@]12c1ccccc1C[C@@H]2CC#N
[out] ≤ 500 nM

Taken from patent US8796460B2.
